experiment: Terminal half life in Sprague-Dawley rat at 50 mg/kg, po; format: ADME, organism-based; set-up: dose 50 mg/kg, route oral; conditions: in vivo, read-out: beta t1/2 (converted)
measured_endpoint: half-life (h)
# number only, unit h dropped from output

Return the recorded half-life value; entry: `CCN(CC)CC(=O)Nc1ccc(NC(=O)Nc2ccc(N(CCCl)CCCl)cc2)cc1`
1.01

* * *

system: HT-29; assay: Cytotoxicity against human HT-29 cells assessed as growth inhibition after 72 hrs by Alamar Blue assay; type: functional, cell-based; settings: HT-29, 72 h
measured_endpoint: IC50 (µM)
# number only, unit µM dropped from output

# structure_smiles, test_system, IC50 (µM)
rows = [
    ("CN(C)CC(=O)Nc1ccc(NC(=O)Nc2ccc(N(CCCl)CCCl)cc2)cc1", "HT-29", 20.1),
    ("O=c1[nH]cc(F)c(=O)[nH]1", "HT-29", 24.9),
    ("CCN(CC)CC(=O)Nc1ccc(NC(=O)Nc2ccc(N(CCCl)CCCl)cc2)cc1", "HT-29", 19.1),
    ("CCN(CC)CCC(=O)Nc1ccc(NC(=O)Nc2ccc(N(CCCl)CCCl)cc2)cc1", "HT-29", 19.3),
    ("O=C(CN1CCCCC1)Nc1ccc(NC(=O)Nc2ccc(N(CCCl)CCCl)cc2)cc1", "HT-29", 11.8),
    ("O=C(CN1CCCC1)Nc1ccc(NC(=O)Nc2ccc(N(CCCl)CCCl)cc2)cc1", "HT-29", 12.3),
    ("O=C(CCN1CCCC1)Nc1ccc(NC(=O)Nc2ccc(N(CCCl)CCCl)cc2)cc1", "HT-29", 14.1),
    ("CN(C)CCC(=O)Nc1ccc(NC(=O)Nc2ccc(N(CCCl)CCCl)cc2)cc1", "HT-29", 23.6),
]

Return the recorded IC50 value; entry: `O=C(CCN1CCCCC1)Nc1ccc(NC(=O)Nc2ccc(N(CCCl)CCCl)cc2)cc1`
12.3

Return the recorded IC50 value; entry: `CCc1c2c(nc3ccc(OC(=O)N4CCC(N5CCCCC5)CC4)cc13)-c1cc3c(c(=O)n1C2)COC(=O)[C@]3(O)CC`
82.8
